Tested on: Rattus norvegicus
Assay Notes: Antiinflammatory activity in albino rat assessed as inhibition of carrageenan-induced paw edema at 0.029 mmol/kg, po after 1 hr relative to control
Assay type: functional
Each record here notes measured inhibition in vivo at 29 µmol/kg.

{"columns": ["Compound", "inhibition in vivo at 29 µmol/kg, %"],
 "data": [
  ["N#Cc1c2n(c(=O)n(-c3ccccc3)/c1=N/c1cccc(C(F)(F)F)c1)CCC2", 8.97],
  ["N/N=C(/N)C1=C(N)N(c2ccccc2)C(=O)N2CCCC12 (centres undefined)", 8.97],
  ["O=C1CN2C(=NN1)C1=C(N=C2c2ccccc2)N(c2ccccc2)C(=O)N2CCCC12 (centres undefined)", 2.23],
  ["CCCNc1nc(-c2ccccc2)nc2c1C1CCCN1C(=O)N2c1ccccc1 (centres undefined)", 13.5],
  ["O=C(NNc1nc(-c2ccccc2)nc2c1C1CCCN1C(=O)N2c1ccccc1)c1cccnc1 (centres undefined)", 32.6],
  ["CCOC(=O)c1cnn(-c2nc(-c3ccccc3)nc3c2C2CCCN2C(=O)N3c2ccccc2)c1N (centres undefined)", 6.74],
  ["O=C(NNc1nc(-c2ccccc2)nc2c1C1CCCN1C(=O)N2c1ccccc1)c1ccccc1 (centres undefined)", 35.9],
  ["COc1ccc(C2NC(=O)C3=C(N2)N(c2ccccc2)C(=O)N2CCCC32)cc1 (centres undefined)", 6.72],
  ["O=C1N(c2ccccc2)c2nc(-c3ccccc3)nc(N3CCCC3)c2C2CCCN12 (centres undefined)", 7.82]
]}

* * *

System: Rattus norvegicus
Assay Notes: Antiinflammatory activity in albino rat assessed as inhibition of carrageenan-induced paw edema at 0.029 mmol/kg, po after 1 hr relative to control
Assay type: functional
Class (by inhibition in vivo at 29 µmol/kg) -- low class: < 10%; middle class: ≥ 10% and < 20%; high class: ≥ 20%

{"columns": ["Compound", "Assayed System", "Group"],
 "data": [
  ["NC1=C(/C(N)=N\\O)C2CCCN2C(=O)N1c1ccccc1 (stereo unspecified)", "Rattus norvegicus", "low class"],
  ["CCN1C(=S)N2CCCC2C2=C1NC(c1ccc(OC)c(O)c1)NC2=O (stereo unspecified)", "Rattus norvegicus", "high class"],
  ["Cc1cc(C)n(-c2nc(-c3ccccc3)nc3c2C2CCCN2C(=O)N3c2ccccc2)n1 (stereo unspecified)", "Rattus norvegicus", "middle class"],
  ["C/N=c1/c(C#N)c2n(c(=O)n1-c1ccccc1)CCC2", "Rattus norvegicus", "middle class"],
  ["CCOC(=O)NNc1nc(-c2ccccc2)nc2c1C1CCCN1C(=O)N2c1ccccc1 (stereo unspecified)", "Rattus norvegicus", "middle class"],
  ["CCCC/N=c1/c(C#N)c2n(c(=O)n1-c1ccccc1)CCC2", "Rattus norvegicus", "middle class"],
  ["Cc1ccc(S(=O)(=O)NNc2nc(-c3ccccc3)nc3c2C2CCCN2C(=O)N3c2ccccc2)cc1 (stereo unspecified)", "Rattus norvegicus", "high class"],
  ["CCCn1cnc2c(c1=N)C1CCCN1C(=S)N2CC (stereo unspecified)", "Rattus norvegicus", "middle class"],
  ["CCO/C=N/C1=C(C#N)C2CCCN2C(=S)N1CC (stereo unspecified)", "Rattus norvegicus", "middle class"],
  ["N#Cc1cnn(-c2nc(-c3ccccc3)nc3c2C2CCCN2C(=O)N3c2ccccc2)c1N (stereo unspecified)", "Rattus norvegicus", "middle class"],
  ["CCO/C=N/C1=C(C#N)C2CCCN2C(=O)N1c1ccccc1 (stereo unspecified)", "Rattus norvegicus", "high class"],
  ["O=C1NC(c2ccccc2)NC2=C1C1CCCN1C(=O)N2c1ccccc1 (stereo unspecified)", "Rattus norvegicus", "low class"],
  ["CCN1C(=S)N2CCCC2c2c1ncn(C)c2=N (stereo unspecified)", "Rattus norvegicus", "middle class"],
  ["CC/N=c1/c(C#N)c2n(c(=O)n1-c1ccccc1)CCC2", "Rattus norvegicus", "low class"],
  ["O=C1CN=C2C3=C(N=C(c4ccccc4)N12)N(c1ccccc1)C(=O)N1CCCC31 (stereo unspecified)", "Rattus norvegicus", "middle class"],
  ["COc1ccc2c(c1)c(CC(=O)O)c(C)n2C(=O)c1ccc(Cl)cc1", "Rattus norvegicus", "high class"],
  ["O=C1N(c2ccccc2)c2nc(-c3ccccc3)nc(N3CCOCC3)c2C2CCCN12 (stereo unspecified)", "Rattus norvegicus", "middle class"],
  ["N#CC1=C(NCCN)N(c2ccccc2)C(=O)N2CCCC12 (stereo unspecified)", "Rattus norvegicus", "middle class"],
  ["N#Cc1c2n(c(=O)n(-c3ccccc3)/c1=N\\CCO)CCC2", "Rattus norvegicus", "low class"]
]}
